- System: Entero. aerog. ATCC 13048
- PROTOCOL NOTES: MIC in vitro (Table 1), Entero. aerog. ATCC 13048
- Assay type: cell-based
- ASSAY CONTEXT: in vitro, Entero. aerog. ATCC 13048; read-out: MIC
- Excerpt: Compound names corresponding to numbers are given in the experimental section. For comparative purposes, data for cephamandole, which is 7-mandelamido-3-(1-methyltetrazol-5-ylthiomethyl)-3-cephem-4-carboxylic acid, is also given in Tables 1 and 2.
QUANTITY: MIC
Quick note: number first, unit second.

Check Entero. aerog. ATCC 13048 data and give MIC for O=C(O)Cn1nnnc1SCC1=C(C(=O)O)N2C(=O)C(NC(=O)[C@H](O)c3ccccc3)[C@H]2SC1 (stereo partly shown) [I] .
6.3 µg/mL

Check Entero. aerog. ATCC 13048 data and give MIC for O=C(O)Cn1nnnc1SCC1=C(C(=O)O)N2C(=O)C(NC(=O)CSC(F)(F)F)[C@H]2SC1 (stereo partly shown) [XVIII] .
13 µg/mL

Check Entero. aerog. ATCC 13048 data and give MIC for Cn1nnnc1SCC1=C(C(=O)O)N2C(=O)C(NC(=O)C(O)c3ccccc3)[C@H]2SC1 (stereo partly shown) [cephamandole, reference compound] .
2.9 µg/mL

Check Entero. aerog. ATCC 13048 data and give MIC for NC(=O)CCn1nnnc1SCC1=C(C(=O)O)N2C(=O)C(NC(=O)CSC(F)(F)F)[C@H]2SC1 (stereo partly shown) [XVI] .
1.6 µg/mL

Check Entero. aerog. ATCC 13048 data and give MIC for CN(C)C(=O)Cn1nnnc1SCC1=C(C(=O)O)N2C(=O)C(NC(=O)[C@H](O)c3ccccc3)C2SC1 (stereo partly shown) [IV] .
6.3 µg/mL

Check Entero. aerog. ATCC 13048 data and give MIC for O=C(O)CCn1nnnc1SCC1=C(C(=O)O)N2C(=O)C(NC(=O)CSC(F)(F)F)[C@H]2SC1 (stereo partly shown) [XV] .
6.3 µg/mL

Check Entero. aerog. ATCC 13048 data and give MIC for NC(=O)CCCCCn1nnnc1SCC1=C(C(=O)O)N2C(=O)C(NC(=O)[C@H](O)c3ccccc3)[C@H]2SC1 (stereo partly shown) [XIV] .
6.3 µg/mL

----------
Give measured MIC for each item. Keep answers brief.
- Test system: Entero. aerog. ATCC 13048
- PROTOCOL NOTES: MIC in vitro (Table 1), Entero. aerog. ATCC 13048
- Type: cell-based
- Description: Compound names corresponding to numbers are given in the experimental section. For comparative purposes, data for cephamandole, which is 7-mandelamido-3-(1-methyltetrazol-5-ylthiomethyl)-3-cephem-4-carboxylic acid, is also given in Tables 1 and 2.

Respond only with MIC recorded for O=C(O)CCn1nnnc1SCC1=C(C(=O)O)N2C(=O)C(NC(=O)[C@H](O)c3ccccc3)[C@H]2SC1 (stereo partly drawn) [VIII]
3.1 µg/mL

Respond only with MIC recorded for NC(=O)CCCn1nnnc1SCC1=C(C(=O)O)N2C(=O)C(NC(=O)[C@H](O)c3ccccc3)[C@H]2SC1 (stereo partly drawn) [XI]
3.1 µg/mL

Respond only with MIC recorded for O=C(O)CCCn1nnnc1SCC1=C(C(=O)O)N2C(=O)C(NC(=O)[C@H](O)c3ccccc3)[C@H]2SC1 (stereo partly drawn) [XII]
3.1 µg/mL

----------
- System: Kleb. pneumo. 4200
- PROTOCOL NOTES: In vivo mouse protection (Table 2), Kleb. pneumo. 4200
- ASSAY CONTEXT: sc, Kleb. pneumo. 4200, s.c.
QUANTITY: ED50 (mg/kg)
Number in mg/kg, nothing else.

Respond only with ED50 recorded for NC(=O)CCn1nnnc1SCC1=C(C(=O)O)N2C(=O)C(NC(=O)[C@H](N)c3ccc(O)cc3)[C@H]2SC1 (stereo partly shown) [X]
0.62

Respond only with ED50 recorded for NC(=O)CCCCCn1nnnc1SCC1=C(C(=O)O)N2C(=O)C(NC(=O)[C@H](O)c3ccccc3)[C@H]2SC1 (stereo partly shown) [XIV]
1.1

Respond only with ED50 recorded for NC(=O)CCn1nnnc1SCC1=C(C(=O)O)N2C(=O)C(NC(=O)CSC(F)(F)F)[C@H]2SC1 (stereo partly shown) [XVI]
0.54

Respond only with ED50 recorded for O=C(O)CCCCCn1nnnc1SCC1=C(C(=O)O)N2C(=O)C(NC(=O)[C@H](O)c3ccccc3)[C@H]2SC1 (stereo partly shown) [XIII]
0.54

Respond only with ED50 recorded for CNC(=O)Cn1nnnc1SCC1=C(C(=O)O)N2C(=O)C(NC(=O)[C@H](O)c3ccccc3)[C@H]2SC1 (stereo partly shown) [III]
2.8

Respond only with ED50 recorded for NC(=O)Cn1nnnc1SCC1=C(C(=O)O)N2C(=O)C(NC(=O)[C@H](N)c3ccc(O)cc3)[C@H]2SC1 (stereo partly shown) [VI]
0.92

Respond only with ED50 recorded for O=C(O)CCCn1nnnc1SCC1=C(C(=O)O)N2C(=O)C(NC(=O)[C@H](O)c3ccccc3)[C@H]2SC1 (stereo partly shown) [XII]
2.9

----------
- System: E. coli SK 12140
- PROTOCOL NOTES: MIC in vitro (Table 1), E. coli SK 12140
- Type: cell-based
- ASSAY CONTEXT: Escherichia coli, SK12140, in vitro, read-out: MIC
QUANTITY: MIC (µg/mL)
Number in µg/mL, nothing else.

Respond only with MIC recorded for O=C(O)CCCn1nnnc1SCC1=C(C(=O)O)N2C(=O)C(NC(=O)[C@H](O)c3ccccc3)[C@H]2SC1 (stereo partly shown) [XII]
1.6

Respond only with MIC recorded for N[C@@H](C(=O)NC1C(=O)N2C(C(=O)O)=C(CSc3nnnn3CC(=O)O)CS[C@H]12)c1ccc(O)cc1 (stereo partly shown) [II]
3.1

Respond only with MIC recorded for O=C(O)CCn1nnnc1SCC1=C(C(=O)O)N2C(=O)C(NC(=O)CSC(F)(F)F)[C@H]2SC1 (stereo partly shown) [XV]
0.8

Respond only with MIC recorded for O=C(O)Cn1nnnc1SCC1=C(C(=O)O)N2C(=O)C(NC(=O)CSC(F)(F)F)[C@H]2SC1 (stereo partly shown) [XVIII]
0.8

Respond only with MIC recorded for CN(C)C(=O)Cn1nnnc1SCC1=C(C(=O)O)N2C(=O)C(NC(=O)[C@H](O)c3ccccc3)C2SC1 (stereo partly shown) [IV]
3.1

Respond only with MIC recorded for Cn1nnnc1SCC1=C(C(=O)O)N2C(=O)C(NC(=O)C(O)c3ccccc3)[C@H]2SC1 (stereo partly shown) [cephamandole, reference compound]
1.1

Respond only with MIC recorded for NC(=O)CCCCCn1nnnc1SCC1=C(C(=O)O)N2C(=O)C(NC(=O)[C@H](O)c3ccccc3)[C@H]2SC1 (stereo partly shown) [XIV]
3.1

----------
Give measured ED50 for each item. Keep answers brief.
- Tested on: Kleb. pneumo. 4200
- PROTOCOL NOTES: In vivo mouse protection (Table 2), Kleb. pneumo. 4200
- ASSAY CONTEXT: sc, Kleb. pneumo. 4200, s.c.
Number in mg/kg, nothing else.

Respond only with ED50 recorded for NC(=O)CCn1nnnc1SCC1=C(C(=O)O)N2C(=O)C(NC(=O)[C@H](O)c3ccccc3)[C@H]2SC1 (stereo partly shown) [VII]
0.78

Respond only with ED50 recorded for CN(C)C(=O)Cn1nnnc1SCC1=C(C(=O)O)N2C(=O)C(NC(=O)[C@H](N)c3ccc(O)cc3)C2SC1 (stereo partly shown) [IX]
3.7

Respond only with ED50 recorded for NC(=O)Cn1nnnc1SCC1=C(C(=O)O)N2C(=O)C(NC(=O)[C@H](O)c3ccccc3)[C@H]2SC1 (stereo partly shown) [V]
1.3

Respond only with ED50 recorded for O=C(O)Cn1nnnc1SCC1=C(C(=O)O)N2C(=O)C(NC(=O)CSC(F)(F)F)[C@H]2SC1 (stereo partly shown) [XVIII]
0.4

----------
Give measured MIC for each item. Keep answers brief.
- Test system: E. coli HH 33779
- PROTOCOL NOTES: MIC in vitro (Table 1), E. coli HH 33779
- Format: cell-based
- ASSAY CONTEXT: Escherichia coli, HH33779, in vitro, E. coli HH 33779; read-out: MIC
Number in µg/mL, nothing else.

Check E. coli HH 33779 data and give MIC for NC(=O)CCCCCn1nnnc1SCC1=C(C(=O)O)N2C(=O)C(NC(=O)[C@H](O)c3ccccc3)[C@H]2SC1 (stereo partly shown) .
3.1

Check E. coli HH 33779 data and give MIC for CN(C)C(=O)Cn1nnnc1SCC1=C(C(=O)O)N2C(=O)C(NC(=O)[C@H](N)c3ccc(O)cc3)C2SC1 (stereo partly shown) .
12.5

Check E. coli HH 33779 data and give MIC for O=C(O)CCCn1nnnc1SCC1=C(C(=O)O)N2C(=O)C(NC(=O)[C@H](O)c3ccccc3)[C@H]2SC1 (stereo partly shown) .
1.6

Check E. coli HH 33779 data and give MIC for N[C@@H](C(=O)NC1C(=O)N2C(C(=O)O)=C(CSc3nnnn3CC(=O)O)CS[C@H]12)c1ccc(O)cc1 (stereo partly shown) .
12.5
